Kindly supply the reported IC50 values for the records listed here.
target: NaV1.6 (Homo sapiens (Human)); test: Sodium Influx Assay (Flux), NaV1.6; settings: read-out: Flux NaV1.6 IC50; Trex HEK293 cells, ANG2 dye; arithmetic mean
Sequence (Q9UQD0 whole entry, looked up): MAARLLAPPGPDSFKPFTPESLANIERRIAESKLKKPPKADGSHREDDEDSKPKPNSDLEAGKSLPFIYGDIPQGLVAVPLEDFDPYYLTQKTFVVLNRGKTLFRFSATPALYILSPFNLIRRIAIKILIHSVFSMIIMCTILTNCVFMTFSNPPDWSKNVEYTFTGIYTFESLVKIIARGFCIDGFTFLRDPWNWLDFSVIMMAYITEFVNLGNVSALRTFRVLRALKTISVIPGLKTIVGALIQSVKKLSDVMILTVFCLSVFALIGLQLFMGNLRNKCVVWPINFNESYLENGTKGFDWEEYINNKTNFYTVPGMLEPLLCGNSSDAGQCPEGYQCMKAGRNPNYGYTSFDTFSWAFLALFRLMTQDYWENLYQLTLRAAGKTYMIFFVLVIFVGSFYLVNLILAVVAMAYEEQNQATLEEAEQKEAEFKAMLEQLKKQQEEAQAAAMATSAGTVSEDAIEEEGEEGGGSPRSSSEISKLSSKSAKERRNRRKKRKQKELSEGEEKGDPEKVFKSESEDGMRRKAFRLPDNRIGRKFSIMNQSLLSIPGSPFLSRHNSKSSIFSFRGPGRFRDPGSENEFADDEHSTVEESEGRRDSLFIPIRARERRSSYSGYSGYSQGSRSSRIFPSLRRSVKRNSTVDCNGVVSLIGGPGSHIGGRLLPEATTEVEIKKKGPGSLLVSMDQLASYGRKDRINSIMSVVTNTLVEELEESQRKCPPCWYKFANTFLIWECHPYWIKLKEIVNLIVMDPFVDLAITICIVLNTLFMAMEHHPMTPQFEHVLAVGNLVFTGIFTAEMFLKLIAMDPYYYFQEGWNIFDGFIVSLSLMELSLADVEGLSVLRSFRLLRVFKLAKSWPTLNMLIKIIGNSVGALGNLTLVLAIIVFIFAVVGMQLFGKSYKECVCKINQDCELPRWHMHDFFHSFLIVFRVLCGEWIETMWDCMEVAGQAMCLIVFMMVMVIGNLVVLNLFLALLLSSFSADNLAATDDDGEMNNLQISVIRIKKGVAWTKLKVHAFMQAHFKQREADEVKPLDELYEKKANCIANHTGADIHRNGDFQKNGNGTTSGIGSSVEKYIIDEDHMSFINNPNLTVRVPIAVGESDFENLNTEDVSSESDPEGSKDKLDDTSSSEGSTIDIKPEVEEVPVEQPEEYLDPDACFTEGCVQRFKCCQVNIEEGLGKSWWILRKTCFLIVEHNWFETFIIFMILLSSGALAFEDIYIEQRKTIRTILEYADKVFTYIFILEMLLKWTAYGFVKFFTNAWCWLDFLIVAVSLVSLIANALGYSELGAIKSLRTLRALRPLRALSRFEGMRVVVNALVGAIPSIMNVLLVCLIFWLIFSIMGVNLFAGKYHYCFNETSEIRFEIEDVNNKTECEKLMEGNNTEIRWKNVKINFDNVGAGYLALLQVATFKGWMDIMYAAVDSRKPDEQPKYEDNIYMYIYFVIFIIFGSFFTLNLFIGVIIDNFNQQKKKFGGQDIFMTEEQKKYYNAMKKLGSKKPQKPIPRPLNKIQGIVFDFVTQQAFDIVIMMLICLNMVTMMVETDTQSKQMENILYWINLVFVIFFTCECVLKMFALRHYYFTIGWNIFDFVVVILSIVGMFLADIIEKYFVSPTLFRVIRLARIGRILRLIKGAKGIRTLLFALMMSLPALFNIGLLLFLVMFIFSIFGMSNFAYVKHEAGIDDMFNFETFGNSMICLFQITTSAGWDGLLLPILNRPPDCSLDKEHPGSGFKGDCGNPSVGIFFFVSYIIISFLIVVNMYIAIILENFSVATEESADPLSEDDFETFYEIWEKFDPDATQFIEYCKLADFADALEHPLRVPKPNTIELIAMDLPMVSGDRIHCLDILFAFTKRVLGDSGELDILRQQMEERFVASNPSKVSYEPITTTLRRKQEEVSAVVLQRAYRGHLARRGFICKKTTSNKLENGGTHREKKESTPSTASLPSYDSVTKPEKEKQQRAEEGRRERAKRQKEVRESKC
Sequence (Q07699 whole entry partner, looked up): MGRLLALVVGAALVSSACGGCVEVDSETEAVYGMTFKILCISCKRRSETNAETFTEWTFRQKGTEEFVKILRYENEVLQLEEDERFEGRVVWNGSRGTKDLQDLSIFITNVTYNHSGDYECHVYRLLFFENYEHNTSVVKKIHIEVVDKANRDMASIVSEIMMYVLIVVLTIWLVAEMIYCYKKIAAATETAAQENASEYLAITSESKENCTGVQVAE
Where a name gives a salt, the structure may show the parent alone.
Answer format: number, then unit.

Q: If you can, please state the reported IC50 value of Cc1c(OC2CCN(Cc3ccccc3)CC2)cc(F)c(S(=O)(=O)Nc2cscn2)c1F [Example 106, formate] .
A: 99 nM

Q: Consider the compound Cc1cc(S(=O)(=O)Nc2cscn2)c(F)cc1N(C)[C@H]1CCN(Cc2nccs2)C1 and give its measured IC50.
A: 6800 nM

Q: Record request: IC50 value, item O=S(=O)(Nc1nccs1)c1ccc(OC2CCN(Cc3ccccc3Cl)CC2)c(Cl)c1
A: 1700 nM

Q: Name the reported IC50 value associated with the compound CN(c1cc(F)c(S(=O)(=O)Nc2cscn2)cc1Cl)[C@H]1CCN(Cc2cccn2C)C1
A: 3150 nM

###

For each entry below, report its pIC50 value.
target: NaV1.1 (Homo sapiens (Human), UniProt P35498); assay: Electrophysiological Assay (EP), patch voltage clamp, NaV1.1; assay type: cell-based; details: HEK-293 cells, whole-cell patch clamp, inactivated state; arithmetic mean
Counter-ions that a name gives are not always drawn.
Friendly reminder that pIC50 comes from taking -log10 of the concentration in mol/L.

Q: Recorded pIC50 of CN(c1cc(F)c(S(=O)(=O)Nc2cccc(F)n2)cc1Cl)[C@H]1CCN(C(C)(C)c2ccccc2)C1 [Example 260, 2,2,2-trifluoroacetate] , please.
A: 5.02

Q: Requested read-out: pIC50. Entry: CN(c1ccc(S(=O)(=O)Nc2cscn2)cc1Cl)[C@H]1CCN(Cc2cccc(C(F)F)c2)C1 [Example 253, formate]
A: 5.32

Q: Can you share its pIC50? I mean this compound: CC(C)(c1ccccc1)N1CCC(Oc2ccc(S(=O)(=O)Nc3nccs3)cc2Cl)CC1 [Example 59, 2,2,2-trifluoroacetate]
A: 5.00

Q: Fill in: pIC50 of O=S(=O)(Nc1nccs1)c1cc(Cl)c(N[C@H]2CCN(Cc3ccccc3)C2)cc1F [Example 87] is ___
A: 5.14

###

biological target: NaV1.6 (Homo sapiens (Human)); test: Sodium Influx Assay (Flux), NaV1.6; details: read-out: Flux NaV1.6 IC50; Trex HEK293 cells, ANG2 dye; arithmetic mean
Counter-ions that a name gives are not always drawn.
Please respond with reported IC50 for every item in the list.
Report the figure in nM without appending any unit label.

Q: What value of measured IC50 is listed for Cc1c(N(C)[C@H]2CCN(Cc3cccc(F)c3F)C2)cc(F)c(S(=O)(=O)Nc2cscn2)c1F [Example 237, formate] ?
A: 64

Q: Which IC50 reading was recorded for the compound CN(c1cc(F)c(S(=O)(=O)Nc2cscn2)c(F)c1)[C@H]1CCN(Cc2ccccc2)C1 [Example 286, formate] ?
A: 2220

Q: Recorded IC50 for CN(c1cc(F)c(S(=O)(=O)Nc2cscn2)cc1Cl)[C@H]1CCN(C(C)(C)c2ccccc2)C1 [Example 257, formate] , please?
A: 701

Q: Look at this compound and give its reported IC50. Cc1cc(S(=O)(=O)Nc2cscn2)c(F)cc1N(C)[C@H]1CCN(Cc2coc(C(C)C)n2)C1
A: 245

###

biological target: NaV1.5 (Homo sapiens (Human), UniProt Q14524); assay: Sodium Influx Assay (Flux), NaV1.5; details: read-out: Flux NaV1.5 IC50; Trex HEK293 cells, ANG2 dye; arithmetic mean
Sequence (Q14524 other isoform, or with tags, fused parts or gaps): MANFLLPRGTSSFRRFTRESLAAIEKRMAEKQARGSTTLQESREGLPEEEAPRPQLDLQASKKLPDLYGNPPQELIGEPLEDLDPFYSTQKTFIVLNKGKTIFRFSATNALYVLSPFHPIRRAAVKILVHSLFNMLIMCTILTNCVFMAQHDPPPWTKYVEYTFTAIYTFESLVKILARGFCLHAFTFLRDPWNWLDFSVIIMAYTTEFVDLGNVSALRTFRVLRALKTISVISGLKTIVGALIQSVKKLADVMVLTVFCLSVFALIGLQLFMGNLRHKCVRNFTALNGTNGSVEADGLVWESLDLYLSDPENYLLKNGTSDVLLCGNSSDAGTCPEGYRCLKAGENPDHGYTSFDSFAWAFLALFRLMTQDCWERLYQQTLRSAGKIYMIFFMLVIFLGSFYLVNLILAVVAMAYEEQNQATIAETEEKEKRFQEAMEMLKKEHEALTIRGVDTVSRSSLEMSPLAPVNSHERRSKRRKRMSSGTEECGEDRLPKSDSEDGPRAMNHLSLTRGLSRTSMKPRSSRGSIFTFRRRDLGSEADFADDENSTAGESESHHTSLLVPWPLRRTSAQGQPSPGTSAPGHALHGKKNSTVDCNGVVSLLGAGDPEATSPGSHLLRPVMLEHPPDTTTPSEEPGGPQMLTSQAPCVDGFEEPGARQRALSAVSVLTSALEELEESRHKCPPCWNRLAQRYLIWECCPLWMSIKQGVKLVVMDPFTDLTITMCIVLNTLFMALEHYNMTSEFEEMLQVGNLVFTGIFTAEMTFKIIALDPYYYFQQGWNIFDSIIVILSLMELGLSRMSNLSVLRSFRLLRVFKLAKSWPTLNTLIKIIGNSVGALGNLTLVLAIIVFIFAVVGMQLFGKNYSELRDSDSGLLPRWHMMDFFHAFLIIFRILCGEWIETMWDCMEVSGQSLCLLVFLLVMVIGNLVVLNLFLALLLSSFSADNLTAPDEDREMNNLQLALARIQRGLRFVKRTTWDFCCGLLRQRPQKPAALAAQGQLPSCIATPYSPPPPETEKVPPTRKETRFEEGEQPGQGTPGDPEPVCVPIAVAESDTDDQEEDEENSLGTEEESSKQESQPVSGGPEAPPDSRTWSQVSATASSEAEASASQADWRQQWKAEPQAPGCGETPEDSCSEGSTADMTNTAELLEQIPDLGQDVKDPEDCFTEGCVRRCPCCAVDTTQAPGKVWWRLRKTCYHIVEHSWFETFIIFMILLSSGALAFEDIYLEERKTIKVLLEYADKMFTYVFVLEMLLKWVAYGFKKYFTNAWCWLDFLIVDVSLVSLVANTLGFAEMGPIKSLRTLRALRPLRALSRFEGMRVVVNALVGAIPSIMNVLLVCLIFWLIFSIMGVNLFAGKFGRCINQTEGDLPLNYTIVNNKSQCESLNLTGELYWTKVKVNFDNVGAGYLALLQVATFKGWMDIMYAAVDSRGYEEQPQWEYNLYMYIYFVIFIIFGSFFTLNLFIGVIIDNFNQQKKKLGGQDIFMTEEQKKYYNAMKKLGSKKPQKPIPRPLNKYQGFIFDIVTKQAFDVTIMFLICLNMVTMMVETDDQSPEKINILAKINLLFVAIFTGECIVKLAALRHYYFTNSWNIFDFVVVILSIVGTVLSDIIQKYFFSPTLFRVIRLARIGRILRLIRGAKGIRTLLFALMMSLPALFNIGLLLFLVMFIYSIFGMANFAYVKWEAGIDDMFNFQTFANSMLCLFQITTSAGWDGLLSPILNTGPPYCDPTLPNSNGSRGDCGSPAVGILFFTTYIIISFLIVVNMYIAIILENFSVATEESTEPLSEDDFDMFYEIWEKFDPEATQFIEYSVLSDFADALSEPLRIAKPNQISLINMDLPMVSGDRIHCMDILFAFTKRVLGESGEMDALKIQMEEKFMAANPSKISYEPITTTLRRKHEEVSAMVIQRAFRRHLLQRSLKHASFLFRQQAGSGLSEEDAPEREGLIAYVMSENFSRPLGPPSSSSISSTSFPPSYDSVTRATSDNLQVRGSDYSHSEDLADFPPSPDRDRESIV
Structures can show the parent of a compound that is named as a salt.
Measured attribute: pIC50
As a rule, pIC50 stands for the negative log10 of the concentration, concentration in M.

Q: // query pIC50 value for entry CN(c1cc(F)c(S(=O)(=O)Nc2cscn2)cc1Cl)[C@H]1CCN(Cc2ccccc2Cl)C1
A: 5.33

Q: Recorded pIC50 for CN(c1cc(F)c(S(=O)(=O)Nc2cscn2)cc1Cl)[C@H]1CCN(Cc2ccc(Br)cc2)C1 , please?
A: 5.17

Q: Query (compound): O=S(=O)(Nc1nccs1)c1cc(Cl)c(OC2CCN(Cc3ccccc3)CC2)cc1F [Example 47, 2,2,2-trifluoroacetate] ; field requested: pIC50
A: 4.80

Q: Bench note: what pIC50 did Cc1cc(S(=O)(=O)Nc2cscn2)c(F)cc1N(C)[C@H]1CCN(Cc2csc(C(C)C)n2)C1 [Example 107, 2,2,2-trifluoroacetate] show?
A: 5.02

Q: Any idea what pIC50 was measured for O=S(=O)(Nc1cscn1)c1c(F)cc(OC2CCN(Cc3ccccc3)CC2)c(Cl)c1F [Example 105, formate] ?
A: 4.76

###

Please provide measured pIC50 for the entries that follow.
target: NaV1.5 (Homo sapiens (Human)); experiment: Sodium Influx Assay (Flux), NaV1.5; details: read-out: Flux NaV1.5 IC50; Trex HEK293 cells, ANG2 dye; arithmetic mean
pIC50 here is simply -log10 of the concentration when that concentration is written in mol/L.

Q: Which measured pIC50 value corresponds to CCc1c(O[C@H]2CCN(Cc3ccccc3)C2)cc(F)c(S(=O)(=O)Nc2cscn2)c1F [Example 276, 2,2,2-trifluoroacetate] ?
A: 4.75

Q: What pIC50 value was documented for this molecule, O=S(=O)(Nc1cscn1)c1cc(Cl)c(O[C@H]2CCN(Cc3cccc(C(F)F)c3)C[C@H]2F)cc1F ?
A: 5.24

Q: # lookup: pIC50 of CC1(Nc2ccc(S(=O)(=O)Nc3nccs3)cc2Cl)CCN(Cc2ccccc2)C1 (stereo not shown)
A: 5.16

Q: Using the record for CN(c1cc(F)c(S(=O)(=O)Nc2cscn2)cc1Cl)[C@H]1CCN(Cc2cc(F)ccc2F)C1 , report its pIC50.
A: 5.13

Q: Fill in the blank: the reported pIC50 of CN(c1cc(F)c(S(=O)(=O)Nc2cscn2)cc1Cl)[C@H]1CCN(Cc2c[nH]c3ccccc23)C1 [Example 182, 2,2,2-trifluoroacetate] is ____.
A: 5.01

Q: Given the molecule Cc1c(F)cccc1CN1CC[C@H](N(C)c2cc(F)c(S(=O)(=O)Nc3cscn3)cc2Cl)C1 , what is its reported pIC50?
A: 5.09

Q: pIC50 lookup needed for Cc1ccc(F)c(CN2CC[C@H](N(C)c3cc(F)c(S(=O)(=O)Nc4cscn4)cc3Cl)C2)c1 [Example 172, 2,2,2-trifluoroacetate] , thanks.
A: 5.30

Q: Requested field: pIC50. Item: Cc1c(N(C)[C@H]2CCN(Cc3cccc(C(F)F)c3)C2)ccc(S(=O)(=O)Nc2cscn2)c1F
A: 4.87

Q: May I ask what pIC50 has been recorded for CN(c1cc(F)c(S(=O)(=O)Nc2cscn2)cc1Cl)[C@H]1CCN(Cc2ccc(Cl)cc2)C1 ?
A: 5.08

Q: Look up pIC50: O=S(=O)(Nc1nccs1)c1ccc(OC2CCN(Cc3ccccc3C(F)(F)F)CC2)c(Cl)c1
A: 5.20

Q: Using the record for C[C@H]1CN(Cc2ccccc2)C[C@@H]1Nc1ccc(S(=O)(=O)Nc2nccs2)cc1Cl (relative stereo) , report its pIC50.
A: 5.06

Q: Consider the molecule Cc1c(N(C)[C@H]2CCN(Cc3ccccc3)C2)cc(F)c(S(=O)(=O)Nc2ncns2)c1F and give its measured pIC50.
A: 4.59

Q: Suppose we examine the molecule Cc1cc(S(=O)(=O)Nc2cscn2)c(F)cc1N(C)[C@H]1CCN([C@H]2C[C@H](c3ccccc3)C2)C1 ; what pIC50 value has been reported?
A: 5.51

Q: What value of pIC50 has been reported for the following molecule? CN(c1ccc(S(=O)(=O)Nc2ncns2)cc1Cl)[C@H]1CCN(Cc2ccccc2Cl)C1 [Example 252, 2,2,2-trifluoroacetate]
A: 5.09

Q: Look up pIC50 for this molecule: CN(c1ccc(S(=O)(=O)Nc2cscn2)cc1Cl)[C@H]1CCN(Cc2ccccc2)C1 [Example 41, 2,2,2-trifluoroacetate]
A: 5.05

Q: Could you share which pIC50 value was measured for CC1(C)CN(Cc2ccccc2)CCC1Oc1ccc(S(=O)(=O)Nc2ncns2)cc1Cl (stereo not shown) [Example 2, 2,2,2-trifluoroacetate] ?
A: 5.20

Q: Query: pIC50; subject: O=S(=O)(Nc1nccs1)c1ccc(OC2CCN(Cc3ccc(C(F)(F)F)cc3)CC2)c(Cl)c1 [Example 23, 2,2,2-trifluoroacetate]
A: 4.53

Q: Any idea what pIC50 was measured for O=S(=O)(Nc1cscn1)c1cc(Cl)c(N[C@@H]2CN(Cc3ccccc3)CC23CC3)cc1F [Example 264, 2,2,2-trifluoroacetate] ?
A: 4.88

Q: Would you kindly share the measured pIC50 for CN(c1cc(F)c(S(=O)(=O)Nc2cscn2)cc1Cl)[C@@H]1CN(Cc2ccccc2)CC12CC2 [Example 265, 2,2,2-trifluoroacetate] ?
A: 5.17

Q: Bench note: what pIC50 did CN(c1cc(F)c(S(=O)(=O)Nc2cscn2)cc1Cl)[C@H]1CCN(C2(c3ccccc3)CC2)C1 [Example 259, 2,2,2-trifluoroacetate] show?
A: 5.24

Q: Query: pIC50; subject: CN(c1ccc(S(=O)(=O)Nc2ncns2)cc1Cl)[C@H]1CCN(Cc2cccc(Cl)c2)C1
A: 4.73
